# Tested on: biotinyl-Trp-oxazolone
# ASSAY METHOD TEXT: self-aminoacylation, catalytic enhancement (BWO) (fold over background); higher = more active; k-Seq, kA / k0A0; sequences stand for … in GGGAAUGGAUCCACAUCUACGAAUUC…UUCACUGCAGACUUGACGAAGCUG
This sample holds only a part of the variants without activity.
Give measured self-aminoacylation for each item. Keep answers brief.
Numbers only.

[
  {
    "CONSTRUCT SEQUENCE": "CCACACUUCACGCGAUCGGUC [Fam1B.1 aminoacylation ribozyme variant]",
    "self-aminoacylation": 2.37
  },
  {
    "CONSTRUCT SEQUENCE": "AUUCCCCUGGUUAUCGAGUGA [Fam2.1 aminoacylation ribozyme variant]",
    "self-aminoacylation": 14.5
  },
  {
    "CONSTRUCT SEQUENCE": "CUACUUCAAACAAUCGCUCCG [Fam1A.1 aminoacylation ribozyme variant]",
    "self-aminoacylation": 1.02
  }
]

QUERY: Given AUUAGCCUGGUCAUCGAGUGU [Fam2.1 aminoacylation ribozyme variant] , state its recorded self-aminoacylation.
RESULT: 5.12

###

# Tested on: biotinyl-Met-oxazolone
# ASSAY METHOD TEXT: self-aminoacylation, catalytic enhancement (BMO) (fold over background); higher = more active; k-Seq, kA / k0A0; sequences stand for … in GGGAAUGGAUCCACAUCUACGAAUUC…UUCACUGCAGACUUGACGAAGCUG
This sample holds only a part of the variants without activity.
Quick rule for you: self-aminoacylation at 6 or higher means y, lower means n.

Recorded results for 2 sequences are shown here.
[
  {
    "CONSTRUCT SEQUENCE": "AUUCACCGAGGCCAUCGGGUG [Fam2.2 aminoacylation ribozyme variant]",
    "TEST SYSTEM": "biotinyl-Met-oxazolone",
    "CLASS NAME": "n"
  },
  {
    "CONSTRUCT SEQUENCE": "AUUACCCGGGUCAUUGAGUGA [Fam2.1 aminoacylation ribozyme variant]",
    "TEST SYSTEM": "biotinyl-Met-oxazolone",
    "CLASS NAME": "y"
  }
]

QUERY: Answer whether self-aminoacylation of AAGUUUGCUAAUAGUGGGAAG [Fam3.1 aminoacylation ribozyme variant] is greater than or equal to 6.
RESULT: n

QUERY: Could you tell me if the measured self-aminoacylation of CGAAACUUCAAGCAAUCGGUC [Fam1B.1 aminoacylation ribozyme variant] reaches 6 or more?
RESULT: n

###

# Test system: biotinyl-Met-oxazolone
# ASSAY METHOD TEXT: self-aminoacylation, catalytic enhancement (BMO) (fold over background); higher = more active; k-Seq, kA / k0A0; sequences stand for … in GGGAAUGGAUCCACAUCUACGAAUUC…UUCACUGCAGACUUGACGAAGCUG
Fewer inactive variants are shown than the library holds.
Decision: self-aminoacylation compared against 3; not below it gives met, below it gives not met.

Worked examples, 10 sequences total:
[
  {
    "CONSTRUCT SEQUENCE": "UAGUUUGCUAAUAGUCACAAG [Fam3.1 aminoacylation ribozyme variant]",
    "CLASS NAME": "not met"
  },
  {
    "CONSTRUCT SEQUENCE": "AUUGUCCUAGGUCAUCGGGUG [Fam2.2 aminoacylation ribozyme variant]",
    "CLASS NAME": "met"
  },
  {
    "CONSTRUCT SEQUENCE": "AUUCACAUAGGUCAUCGGGUA [Fam2.2 aminoacylation ribozyme variant]",
    "CLASS NAME": "not met"
  },
  {
    "CONSTRUCT SEQUENCE": "AUUCCCCUGGUCAUCGAGAGA [Fam2.1 aminoacylation ribozyme variant]",
    "CLASS NAME": "not met"
  },
  {
    "CONSTRUCT SEQUENCE": "AUUACCAUGGUCAUCGAGUCA [Fam2.1 aminoacylation ribozyme variant]",
    "CLASS NAME": "not met"
  },
  {
    "CONSTRUCT SEQUENCE": "GUUUACCUAGGUCAUCGGGUG [Fam2.2 aminoacylation ribozyme variant]",
    "CLASS NAME": "met"
  },
  {
    "CONSTRUCT SEQUENCE": "AUGACCCUGGUCAUCUAGUGA [Fam2.1 aminoacylation ribozyme variant]",
    "CLASS NAME": "met"
  },
  {
    "CONSTRUCT SEQUENCE": "ACUCACCUAGGUCAACGGGUG [Fam2.2 aminoacylation ribozyme variant]",
    "CLASS NAME": "not met"
  },
  {
    "CONSTRUCT SEQUENCE": "GCACACUUCAAGUAAUCGGUC [Fam1B.1 aminoacylation ribozyme variant]",
    "CLASS NAME": "not met"
  },
  {
    "CONSTRUCT SEQUENCE": "ACUACCCUGGUCAUCGUGUGA [Fam2.1 aminoacylation ribozyme variant]",
    "CLASS NAME": "met"
  }
]

QUERY: Could you please find out whether AGUACCCUGAUCAUCGAGUGA [Fam2.1 aminoacylation ribozyme variant] has self-aminoacylation that meets 3 or exceeds it?
RESULT: met

QUERY: Textbook exercise: given the entry CUACUUGAAACAAUCGGCCUG [Fam1A.1 aminoacylation ribozyme variant] , state whether its self-aminoacylation is greater than or equal to 3.
RESULT: not met

QUERY: Tell me whether self-aminoacylation is at least 3 here: CCCCAGUUCAAGCAAUCGGUC [Fam1B.1 aminoacylation ribozyme variant]
RESULT: not met

QUERY: Evaluate CUUCACCUAGGCCAUCGGGUG [Fam2.2 aminoacylation ribozyme variant] : self-aminoacylation at minimum 3?
RESULT: met

###

So I've got a bunch of sequences here, and I need their self-aminoacylation values.
# Tested on: biotinyl-Phe-oxazolone
# ASSAY METHOD TEXT: self-aminoacylation, catalytic enhancement (BFO) (fold over background); higher = more active; k-Seq, kA / k0A0; sequences stand for … in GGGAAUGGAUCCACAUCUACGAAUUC…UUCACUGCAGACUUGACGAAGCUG
Variants at the floor of the assay were thinned out.

[
  {
    "CONSTRUCT SEQUENCE": "CCUCACUUGAAGCAAUCGGUC [Fam1B.1 aminoacylation ribozyme variant]",
    "TEST SYSTEM": "biotinyl-Phe-oxazolone",
    "ENDPOINT LABEL": "self-aminoacylation",
    "RESULT": 0.809
  },
  {
    "CONSTRUCT SEQUENCE": "AAGGUUGCUAAUCGUCGCAAG [Fam3.1 aminoacylation ribozyme variant]",
    "TEST SYSTEM": "biotinyl-Phe-oxazolone",
    "ENDPOINT LABEL": "self-aminoacylation",
    "RESULT": 3.36
  },
  {
    "CONSTRUCT SEQUENCE": "CCACAAUUCAGGCAAUCGGUC [Fam1B.1 aminoacylation ribozyme variant]",
    "TEST SYSTEM": "biotinyl-Phe-oxazolone",
    "ENDPOINT LABEL": "self-aminoacylation",
    "RESULT": 1.29
  },
  {
    "CONSTRUCT SEQUENCE": "AUAACCCUUGUCAUCGAGUGA [Fam2.1 aminoacylation ribozyme variant]",
    "TEST SYSTEM": "biotinyl-Phe-oxazolone",
    "ENDPOINT LABEL": "self-aminoacylation",
    "RESULT": 21.5
  }
]

QUERY: Which value of self-aminoacylation has been reported for AUUAACGUGGUCAUCGAGUGA [Fam2.1 aminoacylation ribozyme variant] in the records?
RESULT: 18.6

###

# System: biotinyl-Val-oxazolone
# ASSAY METHOD TEXT: self-aminoacylation, catalytic enhancement (BVO) (fold over background); higher = more active; k-Seq, kA / k0A0; sequences stand for … in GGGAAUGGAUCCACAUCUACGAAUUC…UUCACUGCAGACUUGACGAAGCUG
Variants at the floor of the assay were thinned out.
Provide the reported self-aminoacylation of each item.
Numbers only.

[
  {
    "CONSTRUCT SEQUENCE": "CCACACUUCAAGUAAUCGGUG [Fam1B.1 aminoacylation ribozyme variant]",
    "self-aminoacylation": 2.98
  },
  {
    "CONSTRUCT SEQUENCE": "CCACACUCCAAGAAAUCGGUC [Fam1B.1 aminoacylation ribozyme variant]",
    "self-aminoacylation": 0.973
  },
  {
    "CONSTRUCT SEQUENCE": "CCACACUUCAAGCAAUAGGUG [Fam1B.1 aminoacylation ribozyme variant]",
    "self-aminoacylation": 1.65
  },
  {
    "CONSTRUCT SEQUENCE": "CUACUUCUAACAGUCGGUCUG [Fam1A.1 aminoacylation ribozyme variant]",
    "self-aminoacylation": 0.597
  },
  {
    "CONSTRUCT SEQUENCE": "CAACACUUCAAGCAAUCUGUC [Fam1B.1 aminoacylation ribozyme variant]",
    "self-aminoacylation": 0.502
  }
]

Batch request: self-aminoacylation per item, same order as input.
1. AAGUUUGCUGAGAGUCGCAAG [Fam3.1 aminoacylation ribozyme variant]
2. AAGUUUGCUAAUCGACGCAAG [Fam3.1 aminoacylation ribozyme variant]
3. AUUCAUAUAGGUCAUCGGGUG [Fam2.2 aminoacylation ribozyme variant]
4. AUUACCCUGGUCAUCGGUUGA [Fam2.1 aminoacylation ribozyme variant]
5. CAACUUCUAACAAUCGGUCUG [Fam1A.1 aminoacylation ribozyme variant]
6. AUUACGCUGGUCAUCGGGUGA [Fam2.1 aminoacylation ribozyme variant]
7. AAGUUUGCUAAUAGUUGUAAG [Fam3.1 aminoacylation ribozyme variant]

RESULT:
1: 0.873; 2: 0.547; 3: 3.28; 4: 1.34; 5: 0.917; 6: 7.46; 7: 1.28
